target: T1, Anti-CD28 Fab (SEQ ID NOs: 696, 697); assay: phage ELISA; captured anti-CD28 Fab pre-incubated with CD28 antigen as competitor, anti-M13-HRP
T1 construct: In the phage ELISA the Fab was biotinylated and captured on neutravidin coated plates
T1 sequence (VH, as listed by the source, chain 1 of 2): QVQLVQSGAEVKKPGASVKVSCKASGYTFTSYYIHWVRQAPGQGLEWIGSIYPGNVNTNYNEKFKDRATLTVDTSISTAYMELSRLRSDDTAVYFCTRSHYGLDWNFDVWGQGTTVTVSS
T1 sequence (VL, as listed by the source, chain 2 of 2): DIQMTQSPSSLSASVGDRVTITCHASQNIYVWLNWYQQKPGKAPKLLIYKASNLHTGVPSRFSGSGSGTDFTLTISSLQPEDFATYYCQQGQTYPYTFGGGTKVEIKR
VALUE_KIND: Phage binding ELISA, Anti-CD28 Fab signal in the presence of CD28

INSERT INTO measurements (binder, numeric_result) VALUES
  ('PCSAGATYAWLYCV (tested as crude clonal phage supernatant) [Phage-1458 peptide (SEQ ID NO: 1754)]', 0.06),
  ('SCAAGAAYPWPACL (tested as crude clonal phage supernatant) [Phage-1460 peptide (SEQ ID NO: 1756)]', 0.06),
  ('SCAAVFSFPWSPCL (tested as crude clonal phage supernatant) [Phage-1446 peptide (SEQ ID NO: 1742)]', 0.08),
  ('QCAAGASYPWPVCL (tested as crude clonal phage supernatant) [Phage-1455 peptide (SEQ ID NO: 1751)]', 0.07),
  ('LCRAGAMWPWPTCL (tested as crude clonal phage supernatant) [Phage-1452 peptide (SEQ ID NO: 1748)]', 0.06),
  ('TCSAGATFHWPQCF (tested as crude clonal phage supernatant) [Phage-1453 peptide (SEQ ID NO: 1749)]', 0.08),
  ('TCSAGFSYSWPACF (tested as crude clonal phage supernatant) [Phage-1447 peptide (SEQ ID NO: 1743)]', 0.07);
